Data origin, for the record: patent US12195482B1

Let's look at some molecules and their measured pIC50.
Molecular target: UniProtKB P30530
Sequence (P30530 26-894): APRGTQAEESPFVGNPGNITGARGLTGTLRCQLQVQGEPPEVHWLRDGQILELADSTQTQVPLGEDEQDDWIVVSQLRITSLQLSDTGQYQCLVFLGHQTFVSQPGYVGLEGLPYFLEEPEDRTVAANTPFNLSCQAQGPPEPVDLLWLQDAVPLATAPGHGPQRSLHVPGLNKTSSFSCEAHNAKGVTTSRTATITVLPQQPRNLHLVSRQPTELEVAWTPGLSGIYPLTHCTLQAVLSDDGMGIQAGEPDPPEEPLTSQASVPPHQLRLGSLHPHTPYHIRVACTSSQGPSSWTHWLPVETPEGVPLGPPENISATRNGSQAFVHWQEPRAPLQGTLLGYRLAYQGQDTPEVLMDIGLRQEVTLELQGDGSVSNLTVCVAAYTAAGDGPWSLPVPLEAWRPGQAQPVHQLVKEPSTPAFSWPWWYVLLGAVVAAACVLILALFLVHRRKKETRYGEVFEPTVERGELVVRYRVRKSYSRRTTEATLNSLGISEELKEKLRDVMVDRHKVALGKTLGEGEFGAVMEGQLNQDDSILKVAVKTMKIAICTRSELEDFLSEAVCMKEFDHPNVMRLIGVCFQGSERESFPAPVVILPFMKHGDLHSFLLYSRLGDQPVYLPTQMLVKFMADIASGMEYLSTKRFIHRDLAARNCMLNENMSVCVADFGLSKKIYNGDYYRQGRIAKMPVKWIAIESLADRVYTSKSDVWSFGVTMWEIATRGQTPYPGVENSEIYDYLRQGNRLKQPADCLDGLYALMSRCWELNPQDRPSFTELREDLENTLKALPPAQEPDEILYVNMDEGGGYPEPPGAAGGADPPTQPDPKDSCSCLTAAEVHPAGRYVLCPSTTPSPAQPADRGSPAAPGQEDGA
Test: Axl NanoBRET intracellular kinase assay (intracellular binding, K-5 tracer displacement)
Design: host or cells: HEK-293
Conditions: HEK-293 cells transfected with Axl-NanoLuc, 0.35 μM K-5 NanoBRET tracer; read-out: Cell Binding AXL
pIC50: −log10 of the molar value.

chemical_string=CC(C)(O)c1cccnc1-c1ccc(-c2n[nH]c3ncc(-c4ccc5c(c4)CC[C@@H](N4C6COCC4C6)CC5)cc23)cc1 quantity_kind=pIC50 result_value="> 7.00"

Incoming: Please supply the value of reported pIC50 for the item "O=C(c1cccnc1-c1ccc(-c2c[nH]c3ncc(-c4ccc5c(c4)CC[C@@H](N4C6COCC4C6)CC5)cc23)cc1)N1CCCC1"
Outgoing: > 7.00

Incoming: Tell me its pIC50 given "C[C@@H]1CCCN1[C@@]1(C)CCc2ccc(-c3cnc4[nH]cc(-c5ccc(-c6ccccn6)cc5)c4c3)cc2CC1" as the entry.
Outgoing: > 7.00

Incoming: Indicate the recorded pIC50 value for this molecule: "Cc1cccnc1-c1ccc(-c2c[nH]c3ncc(-c4ccc5c(c4)CC[C@@H](N4C6COCC4C6)CC5)cc23)cc1"
Outgoing: > 7.00

Incoming: For the molecule "c1ccc(-c2ccc(-c3c[nH]c4ncc(-c5ccc6c(c5)CC[C@@H](N5C7COCC5C7)CC6)cc34)cc2)nc1" , give its measured pIC50 value.
Outgoing: > 7.00

Incoming: Identify pIC50 associated with the molecule "Cc1nccnc1-c1ccc(-c2c[nH]c3ncc(-c4ccc5c(c4)CC[C@@H](N4C6COCC4C6)CC5)cc23)cc1"
Outgoing: > 7.00

Incoming: Look up and state reported pIC50 for "Cc1cccnc1-c1ccc(-c2n[nH]c3ncc(-c4ccc5c(c4)CC[C@@H](N4C6COCC4C6)CC5)cc23)cc1"
Outgoing: > 7.00
